tested on: stem IIa region of the HCV IRES (5′-UTR of HCV RNA); assay: Mass spectrometry based binding assay; conditions: Table 1; ligand 50 μM, IIa target 2.5 μM
Quick list: binding percentage of ligand to target per entry.
Readout Name: binding percentage of ligand to target (%)

1) Nc1nc2ccccc2n1CCOc1ccccc1 = 6
2) CCN(CC)CCn1c(N)nc2ccccc21 = 15
3) CN(C)CCn1c(N)nc2ccccc21 = 11
4) Nc1nc2ccccc2n1CCCN1CCCC1 = 15

---

assay: Single dose in vivo pharmacokinetic study; design: species or system rats; details: plasma; rat, single 3.0 mg/kg IV dose, mean
Quick list: MRT per entry.
Readout Name: MRT (h)

1. CN(C)CC1CNc2nc3ccc(OCCCN(C)Cc4ccccn4)cc3n2C1 (centres unmarked) = 2
2. CN(C)CCCn1c(N)nc2ccc(OCCCN(C)Cc3ccco3)cc21 = 3.1
